assay: Cmax in Sprague-Dawley rat at 3 mg/kg, po measured upto 24 hrs by LC-MS/MS analysis; assay type: ADME, organism-based; details: in vivo
measured metric: Cmax

Problem: # return recorded Cmax for input "O=C1CCCC2(CCN(c3cc(OCC(F)(F)F)ncn3)CC2)N1c1ccc(F)c(F)c1"
Solution: 194 nM

* * *

experiment: Cmax in Beagle dog at 30 mg/kg, po measured upto 24 hrs by LC-MS/MS analysis; assay type: ADME, organism-based, Canis lupus familiaris; conditions: in vivo
measured metric: Cmax (nM)
Numbers only, in nM.

Problem: # return recorded Cmax for input "O=C1CCCC2(CCN(c3cc(OCC(F)(F)F)ncn3)CC2)N1c1ccc(F)c(F)c1"
Solution: 275

* * *

assay: AUC (0 to infinity) in fasted Beagle dog at 30 mg/kg, po measured upto 24 hrs by LC-MS/MS analysis; type: ADME, organism-based, Canis lupus familiaris; conditions: in vivo
measured metric: AUC(0-inf) (µM·h)
Answers are plain numbers, in µM·h.

Problem: # return recorded AUC(0-inf) for input "O=C1CCCC2(CCN(c3cc(OCC(F)(F)F)ncn3)CC2)N1c1ccc(F)c(F)c1"
Solution: 14

* * *

Please respond with reported log10 of AUC(0-inf) for every item in the list.
experiment: AUC (0 to infinity) in Sprague-Dawley rat at 3 mg/kg, po by LC-MS/MS analysis; assay type: ADME, organism-based; conditions: in vivo
Reminder: these figures are log10 of reported AUC(0-inf), in µM·h before transformation.

Consider the reported log10 of AUC(0-inf) for these molecules:
Problem: # return recorded log10 of AUC(0-inf) for input "O=C(/C=C/c1ccccc1)N1CCC2(CCCC(=O)N2c2ccc(F)c(F)c2)CC1"
Solution: 0.06

Problem: # return recorded log10 of AUC(0-inf) for input "O=C1CCCC2(CCN(c3cc(OCC(F)(F)F)ncn3)CC2)N1c1ccc(Cl)c(F)c1"
Solution: 0.62

Problem: # return recorded log10 of AUC(0-inf) for input "O=C1CCCC2(CCN(c3cc(OCC(F)(F)F)ncn3)CC2)N1c1ccc(F)c(F)c1"
Solution: 0.91

Problem: # return recorded log10 of AUC(0-inf) for input "O=C(/C=C/c1ccccc1)N1CCC2(CCCC(=O)N2c2ccc(Cl)c(F)c2)CC1"
Solution: -0.15

Attention now shifts to the item below.
Problem: # return recorded log10 of AUC(0-inf) for input "O=C(/C=C/c1ccccc1)N1CCC2(CCCC(=O)N2c2ccccc2)CC1"
Solution: -0.24

* * *

assay: Volume of distribution at steady state in Sprague-Dawley rat at 0.1 mg/kg, iv measured upto 24 hrs by LC-MS/MS analysis; type: ADME, organism-based; settings: in vivo, read-out: Vdss
measured metric: Vd (L/kg)
One number for each entry, in L/kg.

Problem: # return recorded Vd for input "O=C1CCCC2(CCN(c3cc(OCC(F)(F)F)ncn3)CC2)N1c1ccc(F)c(F)c1"
Solution: 2.3

* * *

assay: Half life in Sprague-Dawley rat at 0.1 mg/kg, iv measured upto 24 hrs by LC-MS/MS analysis; format: ADME, organism-based; settings: in vivo
measured metric: half-life (h)
One number for each entry, in h.

Problem: # return recorded half-life for input "O=C1CCCC2(CCN(c3cc(OCC(F)(F)F)ncn3)CC2)N1c1ccc(F)c(F)c1"
Solution: 3.2

* * *

experiment: Equilibrium solubility of compound at pH 6.8 using amorphous form of sample by HPLC analysis; type: physicochemical; details: buffer
measured metric: solubility thermodynamic (µM)
Numbers only, in µM.

Consider the reported solubility thermodynamic for these compounds:
Problem: # return recorded solubility thermodynamic for input "O=C1CCCC2(CCN(c3cc(OCC(F)(F)F)ncn3)CC2)N1c1ccc(F)c(F)c1"
Solution: 320

Problem: # return recorded solubility thermodynamic for input "O=C(/C=C/c1ccccc1)N1CCC2(CCCC(=O)N2c2ccccc2)CC1"
Solution: 250

Problem: # return recorded solubility thermodynamic for input "O=C(/C=C/c1ccccc1)N1CCC2(CCOC(=O)N2c2ccc(Cl)c(F)c2)CC1"
Solution: 5

Problem: # return recorded solubility thermodynamic for input "O=C(/C=C/c1ccccc1)N1CCC2(CCCC(=O)N2c2ccc(Cl)c(F)c2)CC1"
Solution: 310

Problem: # return recorded solubility thermodynamic for input "O=C(/C=C/C1CCC1)N1CCC2(CCCC(=O)N2c2ccc(Cl)c(F)c2)CC1"
Solution: 120

Working through the 3 compounds below one at a time, give solubility thermodynamic for each.
1. CC1(C)CN(c2cc(N3CCC4(CCCC(=O)N4c4ccc(Cl)c(F)c4)CC3)ncn2)C1
2. O=C1CCCC2(CCN(c3cc(OCC(F)(F)F)ncn3)CC2)N1c1ccc(Cl)c(F)c1
3. O=C1CCCC2(CCN(c3cnc4ccccc4n3)CC2)N1Cc1ccccc1

Solution:
1: 700; 2: 190; 3: 140
